assay comment: in vitro
condition set: human, cultured hepatocytes
assay readout: half-life (min)
Your answer is read as min, so omit the unit and give the number.

(Q) Quick one: give measured half-life for COc1ccc2c3c1O[C@@H]1C(F)CCC4[C@H](C2)N(C(=O)C2CC2)CC[C@]341 (stereo partly drawn)
(A) 120

(Q) Please look at this molecule and report its half-life: COc1ccc2c3c1O[C@@H]1C(F)CCC4[C@H](C2)N(C(=O)Cc2ccccc2)CC[C@]341 (stereo partly drawn)
(A) 32.5

(Q) Please supply the value of reported half-life for the item COc1ccc2c3c1O[C@@H]1C(F)CCC4[C@H](C2)N(CC2CC2)CC[C@]341 (stereo partly drawn)
(A) 54.3
